Experiment: Oral pharmacokinetics in dogs
Format: in vivo
Conditions: dog, plasma, 5 mg/kg, read-out: elimination half life (t1/2)
measured_quantity: half-life

For CCOc1ccc(-c2cc(C)cn2-c2ccc(S(N)(=O)=O)cc2)cc1 , what is its reported half-life?
4 to 5 h

###

Test: clinical
Settings: human, in vivo
measured_quantity: half-life

Name the reported half-life value associated with the compound CCOc1ccc(-c2cc(C)cn2-c2ccc(S(N)(=O)=O)cc2)cc1
15 to 18 h

###

Assay: Oral pharmacokinetics in monkeys
Type: in vivo
Settings: monkey, plasma, 5 mg/kg, read-out: elimination half life (t1/2) (converted)
measured_quantity: half-life

Would you kindly share the measured half-life for CCOc1ccc(-c2cc(C)cn2-c2ccc(S(N)(=O)=O)cc2)cc1 ?
~2 h

###

Assay: Oral pharmacokinetics in rodents
Type: in vivo, mice, rats
Settings: mouse, rat, plasma, po, 5 mg/kg; rodents; read-out: elimination half life (t1/2)
measured_quantity: half-life

Using the record for CCOc1ccc(-c2cc(C)cn2-c2ccc(S(N)(=O)=O)cc2)cc1 , report its half-life.
240 to 300 min

All figures here come from patent US20110301169A1.
